tested on: NCI-H23 lung; experiment: NCI-60 one-dose screen, 48 h (100 = growth as untreated, 0 = no growth, -100 = all killed); details: 10 µM unless noted
About 83,000 compounds went through this panel and 20% of them were active in at least one assay; those are over-represented in the sample as a whole. Calls of active or inactive are those of the source. How the source made its calls: active means growth percent below 10; inactive means the rest.
RECORDED ENDPOINT: growth

COMPOUND	TEST TARGET	RESULT
CC/C=C/C/C=C/C/C=C/C/C=C/C/C=C/C/C=C/CCC(=O)Nc1ccn([C@@H]2O[C@H](CO)[C@@H](O)C2(F)F)c(=O)n1	NCI-H23 lung	1.56% (active)
CNc1ccc(NC)c2c1C(=O)c1ccccc1C2=O	NCI-H23 lung	70.1% (inactive)
O=C1/C(=C/c2ccc(F)cc2)C=C(c2ccccc2)N1CCc1ccccc1	NCI-H23 lung	70.8% (inactive)
COc1c(CCC[P+](c2ccccc2)(c2ccccc2)c2ccccc2)cc2c(c1OC)OCO2	NCI-H23 lung	2.87% (active)
O=C1NC(=Nc2ccc(Cl)cc2)S/C1=C\c1cn(-c2ccccc2)nc1-c1ccccc1	NCI-H23 lung	93.4% (inactive)

Parameter requested: growth. Apply to each item below.
1. Cc1cc(NCCCCNc2ccnc3cc(Cl)ccc23)nc(Nc2ccc(C(=O)N3CCCC3)cc2)n1
2. Cc1ccc(C(=NN=C(N)N)c2ccc(C)cc2)cc1
3. NS(=O)(=O)c1ccc(-n2nc(C(=O)N/N=C\c3ccc(F)cc3)cc2-c2ccc(Cl)cc2)cc1
4. COc1ccc(C(=O)/C=C/c2c(C(F)(F)F)nc3sccn23)cc1OC
5. Fc1c[c-]c(-c2ccccn2)c(F)c1.[CH3-].[Pt+2].c1ccc(P(C[PH+](c2ccccc2)c2ccccc2)c2ccccc2)cc1
6. CCOC(=O)c1c(-c2ccc(Cl)cc2)c(C#N)c(=O)n(-c2ccccc2CC)c1N

1. 81.4% (inactive)
2. -14.5% (active)
3. 84.2% (inactive)
4. 22.7% (inactive)
5. -51.1% (active)
6. 76.9% (inactive)

Parameter requested: growth. Apply to each item below.
1. CCN(CC)CCN1C(=O)c2c(c(C)c3c(oc4cc(O)ccc43)c2C)C1=O
2. COc1ccc(-c2nc(SC(C)C)nc(NNC(N)=S)c2C#N)cc1

1: 92.7% (inactive); 2: 69.7% (inactive)

Parameter requested: growth. Apply to each item below.
1. CCOC(=O)c1csc(NC(=O)COc2cccc(/C=C3\Oc4cc(OC)ccc4C3=O)c2)n1
2. CC1(c2ccccc2)NC(=O)N(NC(=O)CSc2nc(-c3cccs3)nc3ccccc23)C1=O (centres undefined)
3. COC(=O)/C=C1\S/C(=N\NS(=O)(=O)c2ccc(C)cc2)N(c2ccccc2)C1=O

1. 90.7% (inactive)
2. 89.7% (inactive)
3. 102% (inactive)

---

I'd be grateful if you could share measured growth for these entries.
system: NCI-H23 lung; assay: NCI-60 one-dose screen, 48 h (100 = growth as untreated, 0 = no growth, -100 = all killed); conditions: 10 µM unless noted
The panel holds about 83,000 compounds, 20% with a hit somewhere; the sample as a whole holds those more often.
Answers are plain numbers, in %.

Use the examples below as a reference point.
COMPOUND	NUMERIC READOUT
Oc1c(CN2CCCC2)cc(COCc2ccc(Br)cc2)c2cccnc12	20.7
O=C(Nc1cccc2c(O)c(N=Nc3ccc(S(=O)(=O)Nc4nccs4)cc3)cc(N=Nc3ccc(S(=O)(=O)Nc4nccs4)cc3)c12)C(Cl)Cl	103
COc1ccc(NC(=O)c2nc(-c3cc(OC)c(OC)c(OC)c3)n(-c3cccc4ccccc34)n2)cc1OC	45.4
Clc1cccc(Cl)c1/C=C/c1cc(/C=C/c2c(Cl)cccc2Cl)[nH]n1	43.6

Parameter requested: growth. Apply to each item below.
1. COC(=O)[C@]12CC[C@@H](C)[C@H](C)[C@@H]1C1=CC[C@@H]3[C@@]4(C)C(C=O)=C[C@@](C)(COC(=O)c5ccco5)[C@@H]4C(=O)C[C@@]3(C)[C@]1(C)CC2
2. Cc1cc(NCc2cc(Nc3ccnc4cc(Cl)ccc34)ccc2F)nc(N2CCOCC2)n1
3. CCN(CC)c1ccc2nc3c4ccccc4c(=NC(=O)c4ccccc4-c4c5ccc(N(CC)CC)cc5[o+]c5cc(N(CC)CC)ccc45)cc-3oc2c1
4. COc1cc(/C=C/C(=O)c2c(C)nc3ccccc3c2/C=C/c2ccc(C)cc2)cc(OC)c1OC
5. Clc1cccc(Cl)c1C(Nc1nc2ccccc2s1)Nc1nc2ccccc2s1
6. Cc1ccc(Cl)c(NS(=O)(=O)c2ccc(-c3cnc(C4CC4)o3)cc2)c1
7. CC(=O)[C@@H]1CC[C@]2(COS(=O)(=O)c3ccc(C)cc3)CC[C@]3(C)[C@H](CC[C@@H]4[C@@]5(C)CCCNC(C)(C)[C@@H]5CC[C@]43C)[C@@H]12

[26.3, 43.8, 10.9, 24.4, 101, 36.2, 78.6]

Parameter requested: growth. Apply to each item below.
1. Cc1ccc(N2CCN(C(=S)c3cccs3)CC2)cc1
2. CC(=O)n1c(-c2ccc(Cl)cc2)nc2c(c1=O)C(c1ccc(Cl)cc1)c1sc3c(Cl)cccc3c1O2 (stereo not drawn)
3. O=C1OC(c2nc3ccccc3s2)=C/C1=C\c1ccc(O)cc1
4. COc1ccc2c(c1)O/C(=C/c1ccc(OCC(=O)c3ccccc3)cc1)C2=O

[104, -0.859, 98.9, 98.1]

---

tested on: SK-MEL-2 melanoma; experiment: NCI-60 one-dose screen, 48 h (100 = growth as untreated, 0 = no growth, -100 = all killed); conditions: 10 µM unless noted
This is part of a sample that, as a whole, favours compounds with a hit. Of some 83,000 tested, about 20% had one in any assay.
The recorded growth of each item maps onto one of these classes: lower band: < 60%; central band: ≥ 60% and < 80%; upper band: ≥ 80%

These recorded examples may help you get a feel for the data.
COMPOUND	CAT
COc1ccc(/C=N/C2=C(C#N)C(c3ccc(OC)cc3)c3ccc4ccccc4c3O2)cc1 (stereo unspecified)	upper band
Cc1ccc(C(=O)COc2cccc(/C=C3\Oc4ccccc4C3=O)c2)cc1	upper band
O=Cc1ccc(O)c2ncccc12	central band
CCN1C(=O)N(CC)C2C1NN=c1s/c(=C\c3cccs3)c(=O)n12 (stereo unspecified)	lower band
C=CCn1c(C)nc2cc(Nc3nc(N4CCCC4)nc4ccccc34)ccc21	upper band

Determine which band this compound sits in: `COc1ccc2cc(-c3cc(OC)c(OC)c(OC)c3)c(=O)oc2c1`
central band

Determine which band this compound sits in: `O=C(COc1ccc(/C=C2\Oc3ccccc3C2=O)cc1)c1ccc(Cl)cc1`
upper band

Determine which band this compound sits in: `COc1cccc(-c2nn(-c3ccccc3)cc2-c2ccnc(NCCNC(=O)Nc3cccc(C(F)(F)F)c3)c2)c1`
lower band

Determine which band this compound sits in: `CCOC(=O)c1c(/C=C/C(=O)O)nc2ccccc2c1/C=C/c1ccccc1`
lower band

Determine which band this compound sits in: `C[n+]1cccc(CC(=O)NO)c1`
upper band

---

tested on: CAKI-1 renal; test: NCI-60 one-dose screen, 48 h (100 = growth as untreated, 0 = no growth, -100 = all killed); details: 10 µM unless noted
Compounds without any hit were thinned out: in the full panel of roughly 83,000, 20% have a hit. Active and inactive are the calls of the source. Rule for the calls: active = growth percent below 10; inactive = the rest.
RECORDED ENDPOINT: growth

Parameter requested: growth. Apply to each item below.
1. CC1CC2Oc3ccc(Cl)cc3C(=O)N2O1 (stereo not given)
2. COc1cc(/C=C2\C(=O)ON=C2C)cc(OC)c1OC
3. COc1ccc(OC)c2c1[nH]c(=O)c1c3ncccc3cn21
4. CC/C=C1/C(=O)C=C[C@@H]1C/C=C\CCCC(=O)O
5. O=C(COc1ccc(/C=C2\Oc3ccccc3C2=O)cc1)c1ccc(Cl)cc1
6. COc1cc(/C=C/C(=O)c2ccc(Nc3nc(Nc4ccc(F)cc4)nc(Nc4ccc(Cl)cc4)n3)cc2)cc(OC)c1OC
7. O=C(CSc1nnc(-c2ccc(NC(=O)c3cccnc3)cc2)o1)N[C@@H](Cc1ccc(O)cc1)C(=O)O

97.1% (inactive)
91.5% (inactive)
-29.2% (active)
84.9% (inactive)
81.8% (inactive)
124% (inactive)
92.4% (inactive)

---

system: SN12C renal; assay: NCI-60 one-dose screen, 48 h; details: 10 µM unless noted
The panel holds about 83,000 compounds, 20% with a hit somewhere; the sample as a whole holds those more often. Active and inactive are the calls of the source. How the source made its calls: active means growth percent below 10; inactive means the rest.
Classes to choose from: 1 (active), 0 (inactive)

COMPOUND	CAT
Cc1cccc(Cc2cnc(NC(=O)c3ccc4nnsc4c3)s2)c1	0
CCOc1ccccc1-c1cc(-c2cccs2)c(C#N)c(=O)[nH]1	0
CCN1CCN(c2cc(C)nc(NCc3cc(Nc4ccnc5cc(Cl)ccc45)ccc3F)n2)CC1	0
COc1ccc(-c2nc3c(c(=O)n2C(C)=O)C(c2ccc(Cl)cc2)c2sc4c(Cl)cccc4c2O3)cc1 (centres undefined)	1
CC1(C)CC(=O)C2=C(C1)N(c1ccc(OC(F)(F)F)cc1)C(N)=C(C#N)C2c1ccc(Cl)cc1 (centres undefined)	0

Hi, sorry to bother you, what did the test record for `CCN(CC)c1nc(SCC(=O)Nc2nc3ccc(C)cc3s2)nc(-c2ccccc2)c1C#N` ?
0

Hi, sorry to bother you, what did the test record for `O=c1[nH]c2ccccc2n1C1CCN(CCOc2ccccc2)CC1` ?
0

Hi, sorry to bother you, what did the test record for `CCN(CC)c1ccc2nc3c4ccccc4c(=NC(=O)c4ccccc4-c4c5ccc(N(CC)CC)cc5[o+]c5cc(N(CC)CC)ccc45)cc-3oc2c1` ?
0

Hi, sorry to bother you, what did the test record for `CCN(CC)S(=O)(=O)c1cccc(-c2ccc3c(NC(=O)C4CC4)n[nH]c3c2)c1` ?
0
